Biological target: human M1 receptor (hCHRM1) (Homo sapiens, UniProt P11229)
Construct: expressed in transfected cells
Sequence (P11229 1-460): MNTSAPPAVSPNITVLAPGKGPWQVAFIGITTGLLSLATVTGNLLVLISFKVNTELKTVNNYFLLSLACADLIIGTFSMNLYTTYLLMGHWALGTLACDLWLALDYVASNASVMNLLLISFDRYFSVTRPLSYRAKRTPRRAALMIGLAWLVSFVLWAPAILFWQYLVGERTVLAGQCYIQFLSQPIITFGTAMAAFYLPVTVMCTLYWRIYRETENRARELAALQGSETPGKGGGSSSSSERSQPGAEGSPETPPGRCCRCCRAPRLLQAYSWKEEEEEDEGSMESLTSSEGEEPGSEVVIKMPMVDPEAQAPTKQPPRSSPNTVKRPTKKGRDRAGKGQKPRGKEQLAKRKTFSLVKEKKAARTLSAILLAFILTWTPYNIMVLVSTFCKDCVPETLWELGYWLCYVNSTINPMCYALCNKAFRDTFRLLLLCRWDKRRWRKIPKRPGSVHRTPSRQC
Assay: Measurement of M1 receptor positive allosteric modulator (M1PAM) activity, calcium fluorescence (FLIPRtetra) with acetylcholine at EC20
Type: cell-based
Settings: 10 μM test compound; 100% = acetylcholine 1 μM, 0% = DMSO; acetylcholine at EC20
MEASUREMENT TYPE: activity (%) at 10 μM

INSERT INTO assay_data (compound, measurement_type, observed_measurement) VALUES
  ('COc1ccc(Cc2cc3c(c(C)c2C)CN([C@H]2CCCC[C@@H]2O)C3=O)cc1', 'activity (%) at 10 μM', 106),
  ('CCc1cc2c(cc1Cc1ccc(-n3cccn3)cc1)C(=O)N(CC1CCCO1)C2 (centres unmarked)', 'activity (%) at 10 μM', 100),
  ('Cc1c(Cc2ccc(Cl)cc2)cc2c(c1C)CN([C@H]1COCC[C@@H]1O)C2=O', 'activity (%) at 10 μM', 90),
  ('Cc1c(Cc2ccc(-n3cccn3)cc2)cc2c(c1F)CN([C@H]1CCC[C@@H]1O)C2=O (racemic) [Example 79]', 'activity (%) at 10 μM', 93),
  ('Cc1c(Cc2ccc(-n3cccn3)cc2)cc2c(c1C)CN(CC(C)(C)O)C2=O', 'activity (%) at 10 μM', 103),
  ('Cc1cc(-c2ccc(Cc3cc4c(cc3C)CN([C@H]3CCCC[C@@H]3O)C4=O)cc2)ccn1 (racemic)', 'activity (%) at 10 μM', 103),
  ('Cc1cc2c(cc1Cc1ccc(-c3cn(C)nn3)cc1)C(=O)N(CC1CCCO1)C2 (centres unmarked)', 'activity (%) at 10 μM', 97),
  ('Cc1cc2c(cc1Cc1ccc(-c3ccn(C)n3)nc1)C(=O)N([C@H]1CCC[C@@H]1O)C2 (racemic)', 'activity (%) at 10 μM', 110);

====

target: human M1 receptor (hCHRM1) (Homo sapiens); construct: expressed in transfected cells; assay: Measurement of M1 receptor positive allosteric modulator (M1PAM) activity, calcium fluorescence (FLIPRtetra) with acetylcholine at EC20; assay type: cell-based; conditions: 10 μM test compound; 100% = acetylcholine 1 μM, 0% = DMSO; acetylcholine at EC20
MEASUREMENT TYPE: activity (%) at 10 μM

INSERT INTO assay_data (compound, measurement_type, observed_measurement) VALUES
  ('Cc1nn(C)cc1-c1ccc(Cc2cc3c(c(C)c2C)CN([C@H]2CCC[C@@H]2O)C3=O)c(F)c1 (racemic) [Example 95]', 'activity (%) at 10 μM', 92),
  ('Cc1c(Cc2ccc(OC(F)F)cc2)cc2c(c1C)CN([C@H]1COCC[C@@H]1O)C2=O [Example 22]', 'activity (%) at 10 μM', 110),
  ('CCc1cc2c(cc1Cc1ccc(-c3ccn(C)n3)cc1)C(=O)N([C@H]1CCC[C@@H]1O)C2 [Example 120]', 'activity (%) at 10 μM', 93),
  ('Cc1c(Cc2ccc(-n3cccn3)cc2)cc2c(c1Cl)CN([C@H]1CCC[C@@H]1O)C2=O [Example 131]', 'activity (%) at 10 μM', 100),
  ('Cc1c(C#N)c(Cc2ccc(-n3cccn3)cc2)cc2c1CN([C@H]1CCCC[C@@H]1O)C2=O (racemic) [Example 11]', 'activity (%) at 10 μM', 105),
  ('O=C1c2cc(Cc3ccc(-n4cccn4)cc3)c(Cl)cc2CN1[C@H]1CCCC[C@@H]1O (racemic) [Example 2]', 'activity (%) at 10 μM', 109),
  ('Cc1cc2c(cc1Cc1ccc(-c3ccn(C)n3)cc1)C(=O)N([C@H]1CCC[C@@H]1O)C2 (racemic) [Example 51]', 'activity (%) at 10 μM', 86),
  ('COc1ccc(Cc2cc3c(c(C)c2C)CN([C@H]2COCC[C@@H]2O)C3=O)cc1 (racemic) [Example 165]', 'activity (%) at 10 μM', 103),
  ('Cc1c(Cc2ccc(-n3cccn3)cc2F)cc2c(c1C)CN([C@H]1CCC[C@@H]1O)C2=O [Example 16]', 'activity (%) at 10 μM', 94),
  ('Cc1c(Cc2ccc(-n3cccn3)cc2)cc2c(c1C)CN(c1ncc(Cl)cc1F)C2=O [Example 162]', 'activity (%) at 10 μM', 95),
  ('COc1ccc(Cc2cc3c(c(F)c2C)CN([C@H]2COCC[C@@H]2O)C3=O)cc1 [Example 150]', 'activity (%) at 10 μM', 89),
  ('Cc1cc2c(cc1Cc1ccc(-c3ccn(C)n3)nc1)C(=O)N([C@H]1CCCC[C@@H]1O)C2 (racemic) [Example 42]', 'activity (%) at 10 μM', 115),
  ('Cc1c(Cc2ccc(-c3ccn(C)n3)cc2)cc2c(c1F)CN([C@H]1COCC[C@@H]1O)C2=O [Example 140]', 'activity (%) at 10 μM', 93),
  ('COc1ccc(Cc2cc3c(cc2C)CN([C@H]2COCC[C@@H]2O)C3=O)cc1 [Example 164]', 'activity (%) at 10 μM', 102),
  ('COc1c(Cc2ccc(-n3cccn3)cc2)cc2c(c1F)CN([C@H]1CCCC[C@@H]1O)C2=O (racemic) [Example 97]', 'activity (%) at 10 μM', 96),
  ('CCc1cc2c(cc1Cc1ccc(-c3ccn(C)n3)cc1)C(=O)N([C@H]1CCC[C@@H]1O)C2 (racemic) [Example 63]', 'activity (%) at 10 μM', 99),
  ('Cc1c(Cc2ccc(-n3cccn3)cc2)cc2c(c1F)CN([C@H]1COCC[C@@H]1O)C2=O [Example 20]', 'activity (%) at 10 μM', 109),
  ('Cc1cc2c(cc1Cc1ccc(-c3cn(C)nn3)cc1F)C(=O)N(CC1CCCO1)C2 (stereo not drawn) [Example 54]', 'activity (%) at 10 μM', 92),
  ('Cc1c(Cc2ccc(-n3cccn3)cc2)cc2c(c1F)CN([C@H]1CCC[C@@H]1O)C2=O [Example 107]', 'activity (%) at 10 μM', 102),
  ('CCc1cc2c(cc1Cc1ccc(-n3cccn3)cc1)C(=O)N([C@H]1COCC[C@@H]1O)C2 [Example 128]', 'activity (%) at 10 μM', 97),
  ('Cc1cc2c(cc1Cc1ccc(-c3cn(C)nc3C)nc1)C(=O)N([C@H]1CCCC[C@@H]1O)C2 (racemic) [Example 5]', 'activity (%) at 10 μM', 102),
  ('Cc1c(Cc2ccc(-c3cn(C)nn3)cc2)cc2c(c1C)CN(C[C@H]1CCCO1)C2=O [Example 110]', 'activity (%) at 10 μM', 77),
  ('CNC(=O)c1ccc(Cc2cc3c(c(C)c2C)CN(CC(C)(C)O)C3=O)cc1F [Example 138]', 'activity (%) at 10 μM', 106),
  ('Cc1c(Cc2ccc(-n3cccn3)cc2F)cc2c(c1C)CN(C[C@@H]1CCCO1)C2=O [Example 115]', 'activity (%) at 10 μM', 92),
  ('Cc1c(Cc2ccc(-n3cccn3)cc2)cc2c(c1Cl)CN([C@H]1CCCC[C@@H]1O)C2=O (racemic) [Example 93]', 'activity (%) at 10 μM', 94),
  ('Cc1cc2c(cc1Cc1ccc(-c3cn(C)nc3C)nc1)C(=O)N([C@H]1CCC[C@@H]1O)C2 (racemic) [Example 40]', 'activity (%) at 10 μM', 97),
  ('Cc1c(Cc2ccc(-n3cccn3)cc2)cc2c(c1Cl)CN([C@H]1COCC[C@@H]1O)C2=O [Example 130]', 'activity (%) at 10 μM', 94),
  ('CCc1cc2c(cc1Cc1ccc(OC)cc1)C(=O)N([C@H]1COCC[C@@H]1O)C2 [Example 148]', 'activity (%) at 10 μM', 89),
  ('Cc1cc2c(cc1Cc1ccc(-n3cccn3)cc1)C(=O)N([C@H]1CCC[C@@H]1O)C2 [Example 4]', 'activity (%) at 10 μM', 98),
  ('Cc1cc2c(cc1Cc1ccc(-c3cn(C)nc3C)cc1)C(=O)N([C@H]1CCC[C@@H]1O)C2 (racemic) [Example 55]', 'activity (%) at 10 μM', 101);
